Recorded LDH release cytotoxicity, one value per entry.
System: HepaRG
assayRemarks: LDH release cytotoxicity, % of total lysis control; higher = more cytotoxic
measurementSetup: 0.03162 µM; 48 h
assayMetric: LDH release cytotoxicity (%)

[[record]]
compound = "O=C(Nc1ccccc1)c1ccccc1I"
unitlabel = "%"
resultvalue = -1.25

[[record]]
compound = "Cc1ccc2ncccc2c1"
unitlabel = "%"
resultvalue = -1.09

[[record]]
compound = "Cc1nn(C)c(Oc2ccccc2)c1C=NOCc1ccc(C(=O)OC(C)(C)C)cc1 [Fenpyroximate (Z,E)]"
unitlabel = "%"
resultvalue = -1.39

[[record]]
compound = "c1ccc2ccccc2c1"
unitlabel = "%"
resultvalue = -0.307

[[record]]
compound = "N#CN=C1SCCN1Cc1ccc(Cl)nc1"
unitlabel = "%"
resultvalue = -2.96

[[record]]
compound = "CC12C=CC(=O)C=C1CCC1C2C(=O)CC2(C)C1CCC2(O)C(=O)CO (stereo unspecified)"
unitlabel = "%"
resultvalue = -1.86

[[record]]
compound = "CCN1CCC2(CC1)COc1cc3c(cc12)N(C(=O)c1ccc(-c2ccc(-c4nnc(C)o4)cc2C)cc1)CC3"
unitlabel = "%"
resultvalue = -2.84

[[record]]
compound = "CC(C)c1cccc(C(C)C)c1N1C(=O)c2ccc(O)cc2C1=O [2-(2,6-Diisopropylphenyl)-5-hydroxy-1H-isoindole-1,3-dione]"
unitlabel = "%"
resultvalue = 0.356

[[record]]
compound = "Cc1cc(CCN2CCN(c3nsc4ccccc34)CC2)cc2c1NC(=O)CC2(C)C"
unitlabel = "%"
resultvalue = -0.898

[[record]]
compound = "CCC(=CC(N=O)C(N)=O)C(C)[N+](=O)[O-] (stereo unspecified)"
unitlabel = "%"
resultvalue = -0.841

[[record]]
compound = "O=C=NCCCCCCN=C=O"
unitlabel = "%"
resultvalue = -1.38

[[record]]
compound = "OC12N=C(c3ccccc3)SC1Cc1cc(Cl)ccc12 (stereo unspecified)"
unitlabel = "%"
resultvalue = 0.113

[[record]]
compound = "CCc1cccc(CC)c1N"
unitlabel = "%"
resultvalue = -1.27

[[record]]
compound = "CC1(C)NC(=O)NC1=O"
unitlabel = "%"
resultvalue = -2.18

[[record]]
compound = "COP(N)(=O)SC (stereo unspecified)"
unitlabel = "%"
resultvalue = 5.78

[[record]]
compound = "O=[N+]([O-])c1c(Cl)c(Cl)c(Cl)c(Cl)c1Cl"
unitlabel = "%"
resultvalue = -1.26

[[record]]
compound = "Cc1c(COC(=O)C2C(C=C(Cl)C(F)(F)F)C2(C)C)cccc1-c1ccccc1 (stereo unspecified)"
unitlabel = "%"
resultvalue = -1.61

[[record]]
compound = "C1CNCCN1"
unitlabel = "%"
resultvalue = -6.9

[[record]]
compound = "NC(=O)N1C(=O)C(C(=O)c2cc(Cl)cs2)c2cc(F)c(Cl)cc21 (stereo unspecified)"
unitlabel = "%"
resultvalue = -0.676

[[record]]
compound = "Cc1cccc(N)c1"
unitlabel = "%"
resultvalue = -1.1

[[record]]
compound = "CCNc1cccc(C)c1"
unitlabel = "%"
resultvalue = -1.25


---

System: HepaRG
assayRemarks: LDH release cytotoxicity, % of total lysis control; higher = more cytotoxic
measurementSetup: 0.1 µM; 48 h
Recorded LDH release cytotoxicity, one value per entry.
assayMetric: LDH release cytotoxicity (%)

[[record]]
molecule = "Cc1ccc2ncccc2c1 [6-Methylquinoline]"
assaymetric = "LDH release cytotoxicity"
unitlabel = "%"
resultvalue = -1.74

[[record]]
molecule = "N#CN [Cyanamide]"
assaymetric = "LDH release cytotoxicity"
unitlabel = "%"
resultvalue = -2.37

[[record]]
molecule = "CC(C)N(C(=O)SCC(Cl)=C(Cl)Cl)C(C)C [Tri-allate]"
assaymetric = "LDH release cytotoxicity"
unitlabel = "%"
resultvalue = -0.771

[[record]]
molecule = "O=C(O)c1cccc(N(Cc2cccnc2)c2ccc(OC(F)F)c(OC(F)F)c2)c1"
assaymetric = "LDH release cytotoxicity"
unitlabel = "%"
resultvalue = -1.45

[[record]]
molecule = "NCC1(Cc2noc(=O)[nH]2)CCCCC1"
assaymetric = "LDH release cytotoxicity"
unitlabel = "%"
resultvalue = -1.66

[[record]]
molecule = "[O-][Cl+]O [Sodium chlorite]"
assaymetric = "LDH release cytotoxicity"
unitlabel = "%"
resultvalue = 0.219

[[record]]
molecule = "OCCC(F)(F)C(F)(F)C(F)(F)C(F)(F)C(F)(F)C(F)(F)F [6:2 Fluorotelomer alcohol]"
assaymetric = "LDH release cytotoxicity"
unitlabel = "%"
resultvalue = -1.39

[[record]]
molecule = "CCC(C)C(=O)OC1CC(O)C=C2C=CC(C)C(CCC(O)CC(O)CC(=O)O)C21 (stereo unspecified) [Pravastatin sodium]"
assaymetric = "LDH release cytotoxicity"
unitlabel = "%"
resultvalue = -1.91

[[record]]
molecule = "CCOC(=O)c1ccccc1C(=O)OCC [Diethyl phthalate]"
assaymetric = "LDH release cytotoxicity"
unitlabel = "%"
resultvalue = -0.436

[[record]]
molecule = "CCCOC(=O)c1cc(O)c(O)c(O)c1 [Propyl gallate]"
assaymetric = "LDH release cytotoxicity"
unitlabel = "%"
resultvalue = -3.35

[[record]]
molecule = "CCCC(=O)OCCC(C)C [Isopentyl butyrate]"
assaymetric = "LDH release cytotoxicity"
unitlabel = "%"
resultvalue = -0.72

[[record]]
molecule = "NS(=O)(=O)c1cc2c(cc1Cl)NCNS2(=O)=O [Hydrochlorothiazide]"
assaymetric = "LDH release cytotoxicity"
unitlabel = "%"
resultvalue = -1.26

[[record]]
molecule = "CC1(C)C(=O)NC(=O)N1CO [1-(Hydroxymethyl)-5,5-dimethylhydantoin]"
assaymetric = "LDH release cytotoxicity"
unitlabel = "%"
resultvalue = -1.1

[[record]]
molecule = "CC(=O)Oc1ccccc1C(=O)O [Aspirin]"
assaymetric = "LDH release cytotoxicity"
unitlabel = "%"
resultvalue = -0.322

[[record]]
molecule = "O=C(O)CC(O)(CC(=O)O)C(=O)O [Citric acid]"
assaymetric = "LDH release cytotoxicity"
unitlabel = "%"
resultvalue = -0.835

[[record]]
molecule = "Oc1ccc2c(c1)-c1ccccc1C2 [3-Hydroxyfluorene]"
assaymetric = "LDH release cytotoxicity"
unitlabel = "%"
resultvalue = -1.06

[[record]]
molecule = "O=C(O)c1ccccc1 [Sodium benzoate]"
assaymetric = "LDH release cytotoxicity"
unitlabel = "%"
resultvalue = -2.13

[[record]]
molecule = "CC(C)(C)CC(C)(C)c1ccc(O)cc1 [4-(1,1,3,3-Tetramethylbutyl)phenol]"
assaymetric = "LDH release cytotoxicity"
unitlabel = "%"
resultvalue = -1.58

[[record]]
molecule = "O=C(O)c1ccccc1-n1cc(C(=O)O)c(=O)c2cc(Nc3c(F)cc(F)cc3Cl)c(Cl)cc21 [AVE9423]"
assaymetric = "LDH release cytotoxicity"
unitlabel = "%"
resultvalue = -1.38

[[record]]
molecule = "CCCCC=O [Pentanal]"
assaymetric = "LDH release cytotoxicity"
unitlabel = "%"
resultvalue = -1.98

[[record]]
molecule = "O=C(Nc1ccc(Cl)cc1)Nc1ccc(Cl)c(Cl)c1 [Triclocarban]"
assaymetric = "LDH release cytotoxicity"
unitlabel = "%"
resultvalue = -1.67

